// provenance: patent US20100099610A1

# Target under test: hGHQ141N (human, UniProt P01241 27-217)
# Sequence (P01241 27-217 Q167N): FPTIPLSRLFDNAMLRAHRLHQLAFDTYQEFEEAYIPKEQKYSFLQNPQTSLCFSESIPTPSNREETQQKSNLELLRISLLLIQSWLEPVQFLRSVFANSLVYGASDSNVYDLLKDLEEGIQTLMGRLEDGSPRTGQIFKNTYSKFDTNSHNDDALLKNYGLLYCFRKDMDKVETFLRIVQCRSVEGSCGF
# Protocol summary: cell-based or functional assay
binders and their reported RSA Q40

S. ladakanum GlyPro-TGase mutant S250W (enzyme) GPDSDERVTPPAEPLDRMPDPYRPSYGRAETIVNNYIRKWQQVYSHRDGRKQQMTEEQREWLSYGCVGVTWVNSGQYPTNRLAFAFFDEDKYKNELKNGRPRSGETRAEFEGRVAKDSFDEAKGFQRARDVASVMNKALENAHDEGAYLDNLKKELANGNDALRNEDARSPFYSALRNTPSFKDRNGGNHDPSKMKAVIYSKHFWSGQDRSGSSDKRKYGDPEAFRPDRGTGLVDMSRDRNIPRSPTSPGEWFVNFDYGWFGAQTEADADKTVWTHGNHYHAPNGSLGAMHVYESKFRNWSDGYSDFDRGAYVVTFVPKSWNTAPDKVKQGWP :: 1.3 relative to wild type TGase
S. ladakanum GlyPro-TGase mutant Y62N (enzyme) GPDSDERVTPPAEPLDRMPDPYRPSYGRAETIVNNYIRKWQQVYSHRDGRKQQMTEEQREWLSNGCVGVTWVNSGQYPTNRLAFAFFDEDKYKNELKNGRPRSGETRAEFEGRVAKDSFDEAKGFQRARDVASVMNKALENAHDEGAYLDNLKKELANGNDALRNEDARSPFYSALRNTPSFKDRNGGNHDPSKMKAVIYSKHFWSGQDRSGSSDKRKYGDPEAFRPDRGTGLVDMSRDRNIPRSPTSPGESFVNFDYGWFGAQTEADADKTVWTHGNHYHAPNGSLGAMHVYESKFRNWSDGYSDFDRGAYVVTFVPKSWNTAPDKVKQGWP :: 0.05 relative to wild type TGase

From here, focus on the item given below.
stdin: # return recorded RSA Q40 for entry S. ladakanum GlyPro-TGase mutant S250V (enzyme) GPDSDERVTPPAEPLDRMPDPYRPSYGRAETIVNNYIRKWQQVYSHRDGRKQQMTEEQREWLSYGCVGVTWVNSGQYPTNRLAFAFFDEDKYKNELKNGRPRSGETRAEFEGRVAKDSFDEAKGFQRARDVASVMNKALENAHDEGAYLDNLKKELANGNDALRNEDARSPFYSALRNTPSFKDRNGGNHDPSKMKAVIYSKHFWSGQDRSGSSDKRKYGDPEAFRPDRGTGLVDMSRDRNIPRSPTSPGEVFVNFDYGWFGAQTEADADKTVWTHGNHYHAPNGSLGAMHVYESKFRNWSDGYSDFDRGAYVVTFVPKSWNTAPDKVKQGWP
stdout: 0.51 relative to wild type TGase
